target: NahK_ATCC15697 (Bifidobacterium longum, UniProt B7GN78); test: Substrate specificity CE assay, NahK_ATCC15697; type: biochemical, Bifidobacterium infantis; conditions: 15 μM enzyme, 30 min at 37° C.; substrate 1 mM, ATP 1 mM (Table 2)
Percentage Conversion below 20% gives -1; Percentage Conversion at or above it gives 1.

Problem: Reported Percentage Conversion at or above 20%? O=C(NC1C(O)OC(CO)[C@H](O)C1O)c1ccccc1 (some centres unmarked)
Result: 1

Problem: Reported Percentage Conversion at or above 20%? [N-]=[N+]=NC1C(O)OC(CO)[C@H](O)C1O (some centres unmarked)
Result: -1

Problem: Reported Percentage Conversion at or above 20%? CC(=O)NC1C(O)OC(C)[C@@H](O)C1O (some centres unmarked)
Result: 1

Problem: Reported Percentage Conversion at or above 20%? NC1C(O)OC(CO)[C@@H](O)[C@@H]1O (some centres unmarked)
Result: -1

Problem: Reported Percentage Conversion at or above 20%? CC(=O)NC1C(O)OC(COS(=O)(=O)O)[C@@H](O)C1O (some centres unmarked)
Result: -1

* * *

Kindly state Percentage Conversion for each of the entries shown.
molecular target: NahK_ATCC55813 (Bifidobacterium longum subsp. longum, UniProt E8MF12, D7V/R348H); format: biochemical; design: made in house; host or cells: E. coli BL21(DE3); conditions: Glc, Gal, Man, ManNAc and derivatives; enzyme 15, 37° C. for 30 min (Table 3)
Numeric answer only, unit % assumed.

Problem: Which value of Percentage Conversion has been reported for [N-]=[N+]=NC1C(O)OC(CO)[C@@H](O)C1O (stereo partly shown) in the records?
Result: 40.2

Problem: Which value of Percentage Conversion has been reported for CC(=O)N[C@@H]1C(O)O[C@H](CO)[C@@H](O)[C@@H]1O (stereo partly shown) in the records?
Result: 5.5

Problem: Which value of Percentage Conversion has been reported for O=C(CO)NC1C(O)OC(CO)[C@@H](O)C1O (stereo partly shown) in the records?
Result: 5.4

Problem: Which value of Percentage Conversion has been reported for COCC1OC(O)C(NC(C)=O)[C@@H](O)[C@@H]1O (stereo partly shown) in the records?
Result: 28.9

Problem: Which value of Percentage Conversion has been reported for COC1C(O)OC(CO)[C@@H](O)C1O (stereo partly shown) in the records?
Result: 0

Problem: Which value of Percentage Conversion has been reported for O=C(CF)NC1C(O)OC(CO)[C@@H](O)C1O (stereo partly shown) in the records?
Result: 9.1

Problem: Which value of Percentage Conversion has been reported for OCC1OC(O)C[C@@H](O)[C@@H]1O (stereo partly shown) in the records?
Result: 28.4

Problem: Which value of Percentage Conversion has been reported for [N-]=[N+]=NCC(=O)N[C@@H]1C(O)O[C@H](CO)[C@@H](O)[C@@H]1O (stereo partly shown) in the records?
Result: 18.6

Problem: Which value of Percentage Conversion has been reported for COCC(=O)NC1C(O)OC(CO)[C@@H](O)C1O (stereo partly shown) in the records?
Result: 7.4

Problem: Which value of Percentage Conversion has been reported for OCC1CC(O)C(O)C(O)O1 (stereo not shown) in the records?
Result: 23.9

* * *

biological target: SpGalK (Streptococcus pneumoniae serotype 4, UniProt Q97NZ6); construct: made in house; assay: Kinase reaction monitored by CE (ATP to ADP), SpGalK; assay type: biochemical, Streptococcus pneumoniae TIGR4; conditions: 1 hr; monosaccharide 15 mM, ATP 18 mM, 37° C.
PROPERTY NAME: ATP Conversion (%)
Numeric answer only, unit % assumed.

Problem: Which value of ATP Conversion has been reported for CC(=O)NC1C(O)OC(CO)[C@H](O)[C@@H]1O (stereo partly shown) in the records?
Result: 11.8

Problem: Which value of ATP Conversion has been reported for OCC1OC(O)C(O)[C@@H](O)[C@@H]1O (stereo partly shown) in the records?
Result: 6.9

Problem: Which value of ATP Conversion has been reported for OCC1OC(O)CC(O)[C@H]1O (stereo partly shown) in the records?
Result: 80.3

Problem: Which value of ATP Conversion has been reported for [N-]=[N+]=NC1C(O)OC(CO)[C@H](O)C1O (stereo partly shown) in the records?
Result: 45.7
